Attribution: paper PMC8586704

system: L02; experiment: cells; assay type: cell-based; settings: normal human hepatic cell line
pIC50: −log10 of the molar value. Starred links: 1 amine or outer side, 2 acyl side, 3 side chain; linkers in the order of their positions; H or OH if unused. Non-standard residues stand in square brackets, D forms with d. Residues, ends and D or L forms follow the SMILES beside them. Groups on a side chain read outwards from the residue. Trp(1-(1,1-Me2-allyl)) = C=CC(C)(C)n1cc(C[C@H](N)C(=O)O)c2ccccc21; NMeGlu(4S-Me) = C[C@@H](C[C@@H](C(=O)[*:2])N(C)[*:1])C(=O)[*:3]; X6 = C[C@@H](C[C@@H](C(=O)[*:2])N(C)[*:1])C(=O)NNC(=O)c1ccncc1; Tyr(3-NO2) = N[C@@H](Cc1ccc(O)c([N+](=O)[O-])c1)C(=O)O; Gly(E-crotyl) = C/C=C/C[C@H](N)C(=O)O; NMeL = CN[C@@H](CC(C)C)C(=O)O
Measured endpoint: pIC50

// known answers, use as guide
Compound	Observed value
C=CC(C)(C)n1cc(C[C@@H]2NC(=O)[C@H](C/C=C/C)NC(=O)[C@H](CC(C)C)NC(=O)[C@H](C[C@H](C)C(=O)N[C@@H](Cc3ccc(O)cc3)C(=O)OC)N(C)C(=O)[C@H](C)NC(=O)[C@H](Cc3ccc(O)c([N+](=O)[O-])c3)NC(=O)[C@H](CC(C)C)N(C)C2=O)c2ccccc21 [Compound 8, ilamycin NJL8] (cyclo(A[NMeGlu(4S-Me)]([Tyr-OMe])L[Gly(E-crotyl)][Trp(1-(1,1-Me2-allyl))][NMeL][Tyr(3-NO2)]))	< 4.30
C=CC(C)(C)n1cc(C[C@@H]2NC(=O)[C@H](C/C=C/C)NC(=O)[C@H](CC(C)C)NC(=O)[C@H](C[C@H](C)C(=O)NNC(=O)c3ccncc3)N(C)C(=O)[C@H](C)NC(=O)[C@H](Cc3ccc(O)c([N+](=O)[O-])c3)NC(=O)[C@H](CC(C)C)N(C)C2=O)c2ccccc21 [Compound 13, ilamycin NJL13] (cyclo(A[X6]L[Gly(E-crotyl)][Trp(1-(1,1-Me2-allyl))][NMeL][Tyr(3-NO2)]))	< 4.30

response.value for C=CC(C)(C)n1cc(C[C@@H]2NC(=O)[C@H](C/C=C/C)NC(=O)[C@H](CC(C)C)NC(=O)[C@H](C[C@H](C)C(=O)N[C@@H](Cc3c[nH]c4ccccc34)C(=O)OC)N(C)C(=O)[C@H](C)NC(=O)[C@H](Cc3ccc(O)c([N+](=O)[O-])c3)NC(=O)[C@H](CC(C)C)N(C)C2=O)c2ccccc21 [Compound 6, ilamycin NJL6] (cyclo(A[NMeGlu(4S-Me)]([Trp-OMe])L[Gly(E-crotyl)][Trp(1-(1,1-Me2-allyl))][NMeL][Tyr(3-NO2)])) (field: pIC50) = < 4.30

* * *

tested on: Huvec-12; test: Cytotoxicity assay (CCK-8); assay type: cell-based; conditions: normal human umbilical vein endothelial cell line
pIC50: −log10 of the molar value. Starred links: 1 amine or outer side, 2 acyl side, 3 side chain; linkers in the order of their positions; H or OH if unused. Non-standard residues stand in square brackets, D forms with d. Residues, ends and D or L forms follow the SMILES beside them. Groups on a side chain read outwards from the residue. X4 = COC(=O)[C@H](CCSC)NC(=O)[C@@H](C)C[C@@H](C(=O)[*:2])N(C)[*:1]; Trp(1-(1,1-Me2-allyl)) = C=CC(C)(C)n1cc(C[C@H](N)C(=O)O)c2ccccc21; NMeGlu(4S-Me) = C[C@@H](C[C@@H](C(=O)[*:2])N(C)[*:1])C(=O)[*:3]; X9 = CSCCC(=O)Oc1ccc(C[C@H](N[*:1])C(=O)[*:2])cc1[N+](=O)[O-]; X1 = C[C@@H](C[C@@H](C(=O)[*:2])N(C)[*:1])C(=O)NCc1ccc(F)cc1; Tyr(3-NO2) = N[C@@H](Cc1ccc(O)c([N+](=O)[O-])c1)C(=O)O; Gly(E-crotyl) = C/C=C/C[C@H](N)C(=O)O; NMeL = CN[C@@H](CC(C)C)C(=O)O
Measured endpoint: pIC50

Compound	Measured endpoint	Observed value
C=CC(C)(C)n1cc(C[C@@H]2NC(=O)[C@H](C/C=C/C)NC(=O)[C@H](CC(C)C)NC(=O)[C@H](C[C@H](C)C(=O)N[C@@H](Cc3c[nH]c4ccccc34)C(=O)OC)N(C)C(=O)[C@H](C)NC(=O)[C@H](Cc3ccc(O)c([N+](=O)[O-])c3)NC(=O)[C@H](CC(C)C)N(C)C2=O)c2ccccc21 [Compound 6, ilamycin NJL6] (cyclo(A[NMeGlu(4S-Me)]([Trp-OMe])L[Gly(E-crotyl)][Trp(1-(1,1-Me2-allyl))][NMeL][Tyr(3-NO2)]))	pIC50	< 4.30
C=CC(C)(C)n1cc(C[C@@H]2NC(=O)[C@H](C/C=C/C)NC(=O)[C@H](CC(C)C)NC(=O)[C@H](C[C@H](C)C(=O)N[C@@H](CCSC)C(=O)OC)N(C)C(=O)[C@H](C)NC(=O)[C@H](Cc3ccc(O)c([N+](=O)[O-])c3)NC(=O)[C@H](CC(C)C)N(C)C2=O)c2ccccc21 [Compound 2, ilamycin NJL2] (cyclo(A[X4]L[Gly(E-crotyl)][Trp(1-(1,1-Me2-allyl))][NMeL][Tyr(3-NO2)]))	pIC50	< 4.30
C=CC(C)(C)n1cc(C[C@@H]2NC(=O)[C@H](C/C=C/C)NC(=O)[C@H](CC(C)C)NC(=O)[C@H](C[C@H](C)C(=O)O)N(C)C(=O)[C@H](C)NC(=O)[C@H](Cc3ccc(O)c([N+](=O)[O-])c3)NC(=O)[C@H](CC(C)C)N(C)C2=O)c2ccccc21 [ilamycin F, reference compound] (cyclo(A[NMeGlu(4S-Me)]L[Gly(E-crotyl)][Trp(1-(1,1-Me2-allyl))][NMeL][Tyr(3-NO2)]))	pIC50	4.34
C=CC(C)(C)n1cc(C[C@@H]2NC(=O)[C@H](C/C=C/C)NC(=O)[C@H](CC(C)C)NC(=O)[C@H](C[C@H](C)C(=O)O)N(C)C(=O)[C@H](C)NC(=O)[C@H](Cc3ccc(OC(=O)CCSC)c([N+](=O)[O-])c3)NC(=O)[C@H](CC(C)C)N(C)C2=O)c2ccccc21 [Compound 18, ilamycin NJL18] (cyclo(A[NMeGlu(4S-Me)]L[Gly(E-crotyl)][Trp(1-(1,1-Me2-allyl))][NMeL][X9]))	pIC50	< 4.30

Now look at this one.
# pIC50 (compound: C=CC(C)(C)n1cc(C[C@@H]2NC(=O)[C@H](C/C=C/C)NC(=O)[C@H](CC(C)C)NC(=O)[C@H](C[C@H](C)C(=O)NCc3ccc(F)cc3)N(C)C(=O)[C@H](C)NC(=O)[C@H](Cc3ccc(O)c([N+](=O)[O-])c3)NC(=O)[C@H](CC(C)C)N(C)C2=O)c2ccccc21 [Compound 10, ilamycin NJL10] (cyclo(A[X1]L[Gly(E-crotyl)][Trp(1-(1,1-Me2-allyl))][NMeL][Tyr(3-NO2)])) ) is < 4.30

* * *

system: L02; assay: cells; format: cell-based; settings: normal human hepatic cell line
Starred links: 1 amine or outer side, 2 acyl side, 3 side chain; linkers in the order of their positions; H or OH if unused. Non-standard residues stand in square brackets, D forms with d. Residues, ends and D or L forms follow the SMILES beside them. Groups on a side chain read outwards from the residue. X10 = CC[C@H](C)[C@H](NC(=O)[C@@H](C)C[C@@H](C(=O)[*:2])N(C)[*:1])C(=O)OC; Trp(1-(1,1-Me2-allyl)) = C=CC(C)(C)n1cc(C[C@H](N)C(=O)O)c2ccccc21; NMeGlu(4S-Me) = C[C@@H](C[C@@H](C(=O)[*:2])N(C)[*:1])C(=O)[*:3]; Tyr(3-NO2) = N[C@@H](Cc1ccc(O)c([N+](=O)[O-])c1)C(=O)O; Gly(E-crotyl) = C/C=C/C[C@H](N)C(=O)O; NMeL = CN[C@@H](CC(C)C)C(=O)O
We begin with a simple list: items and their reported IC50.
Number in µM, nothing else.

Molecule	Units	Observed value
C=CC(C)(C)n1cc(C[C@@H]2NC(=O)[C@H](C/C=C/C)NC(=O)[C@H](CC(C)C)NC(=O)[C@H](C[C@H](C)C(=O)N[C@H](C(=O)OC)[C@@H](C)CC)N(C)C(=O)[C@H](C)NC(=O)[C@H](Cc3ccc(O)c([N+](=O)[O-])c3)NC(=O)[C@H](CC(C)C)N(C)C2=O)c2ccccc21 [Compound 3, ilamycin NJL3] (cyclo(A[X10]L[Gly(E-crotyl)][Trp(1-(1,1-Me2-allyl))][NMeL][Tyr(3-NO2)]))	µM	12

The value of IC50 measured for the molecule C=CC(C)(C)n1cc(C[C@@H]2NC(=O)[C@H](C/C=C/C)NC(=O)[C@H](CC(C)C)NC(=O)[C@H](C[C@H](C)C(=O)N[C@@H](CCCNC(=N)N)C(=O)OC)N(C)C(=O)[C@H](C)NC(=O)[C@H](Cc3ccc(O)c([N+](=O)[O-])c3)NC(=O)[C@H](CC(C)C)N(C)C2=O)c2ccccc21 [Compound 4, ilamycin NJL4] (cyclo(A[NMeGlu(4S-Me)]([Arg-OMe])L[Gly(E-crotyl)][Trp(1-(1,1-Me2-allyl))][NMeL][Tyr(3-NO2)])) turned out to be 25.9
